The origin of these recorded values is patent US6323185.

Target: HIV-1 integrase wild-type (IN1-288) (HIV-1, UniProt P12497 P12497:1148-1435)
Experiment: inhibition; 3'-processing; strand transfer 0.023 uM
Details: G4
Reported endpoint: IC50 (nM)
Give bare numbers, in nM.

Q) Given GGTTGGTGTGGTTGG (ssDNA, all PS (Table B-7; Table C-1 lists it as pPT)) [T30341 thrombin-binding aptamer PT] , respond with its IC50.
A) 42
